Quick reference for growth inhibition among some molecules
experiment: NCI Yeast Anticancer Drug Screen. Data for the bub3 strain (AID 167); details: S. cerevisiae bub3 mutant strain, at 50.0 µM, stronger effect = higher value
This is part of a sample that, as a whole, favours compounds with a hit. Of some 79,000 tested, about 15% had one in any assay.
Observed Property: growth inhibition (%)

{"Molecule": "O=C1CSC(=S)N1c1cccc(Cl)c1", "Result": 70.2}
{"Molecule": "Cc1ccc([N+](=O)[O-])cc1Cl", "Result": -3.85}
{"Molecule": "CCC1(C)C(C#N)(C#N)C1(C#N)C#N", "Result": 95.4}
{"Molecule": "COC(=O)c1ccc2c(c1)CC1(C2)Cc2ccccc2C1=O (centres undefined)", "Result": 87.1}
{"Molecule": "Nc1ccc(CCCCCc2ccc(N)cc2)cc1", "Result": 98.7}
{"Molecule": "CSC(=S)n1nc(-c2ccccc2)c(N=Nc2ccccc2[N+](=O)[O-])c1C", "Result": 94.3}
{"Molecule": "CC(C)C1=CC(=O)C2=C(CCC3C(C)(C(=O)O)CCC[C@]23C)C1=O (some centres undefined)", "Result": 92.3}
{"Molecule": "CSc1ncnc2nn(C3OC(COC(=O)c4ccccc4)C(OC(=O)c4ccccc4)C3OC(=O)c3ccccc3)nc12 (centres undefined)", "Result": -11.2}
{"Molecule": "CCN(CC)CCSCCCNc1cc(OC)cc2cccnc12", "Result": 54}
{"Molecule": "CCC(CC)(c1ccc(C)cc1)c1ccc(C)cc1", "Result": 92.3}
{"Molecule": "CCCCN(CCCC)CC(O)c1cc(-c2ccc(Cl)cc2)nc2c(Cl)cccc12 (centres undefined)", "Result": 98.8}
{"Molecule": "Clc1ccc2nc3c(c(N4CCCCC4)c2c1)CCCC3", "Result": 97}
{"Molecule": "NC(=O)N/N=C1/CC2CCCCC2c2ccccc21 (centres undefined)", "Result": 86.2}
{"Molecule": "CCN(CC)CC(O)c1ccnc2c(O)cccc12 (centres undefined)", "Result": 0.1}
{"Molecule": "CCOc1ccnc2c(C)c3c([nH]c4ccccc43)c(C)c12", "Result": 99.3}
{"Molecule": "CCCCCCCCCCCC[n+]1ccc(C#N)cc1", "Result": 47.8}
{"Molecule": "O=C(N/C(=C\\c1cc(Cl)ccc1Cl)c1nc2ccc(Cl)cc2[nH]1)c1ccccc1", "Result": 94.7}
{"Molecule": "CC1OC(c2ccc3c(c2)OCO3)OC1C (centres undefined)", "Result": 25}
{"Molecule": "CCCCCCC1CCC(CCCCCCCC(=O)N2CCN(C)CC2)C(C/C=C/CCCCCCCC(=O)N2CCN(C)CC2)C1CCCCC (centres undefined)", "Result": 98.7}
{"Molecule": "NC(=S)C(=Nc1ccccc1F)Nc1ccccc1F", "Result": 32.9}
{"Molecule": "O=C(C(=O)c1ccc(Cc2ccc(C(=O)C(=O)c3ccccc3)cc2)cc1)c1ccccc1", "Result": 0.8}
{"Molecule": "CCCCc1[nH]ccc2c(C)c3nc4ccccc4c3cc12", "Result": 88.7}
{"Molecule": "CCCCOC(=O)C#CC(=O)OCCCC", "Result": 99.3}
{"Molecule": "O=c1[nH]c2ccccc2c2cccc(F)c12", "Result": 91.8}

These data points were gathered from PubChem BioAssay (NCI).
